B1: POU domain, class 4, transcription factor 1, residues 266 to 347; numbered along this chain, Q01851 (parent)
chain: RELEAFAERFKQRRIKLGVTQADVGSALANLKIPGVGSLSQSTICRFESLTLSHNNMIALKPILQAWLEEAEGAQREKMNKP

- Variants of: B1
- protocol.summary: abundance fitness (aPCA) (normalised: wild type 0, dead -1); higher = more abundant; growth selection in yeast, the domain comes from the species named
- applied.conditions: Homo sapiens
# cutoff -0.006 applies to abundance fitness; >= gives Condition met, < gives Condition not met

Determine whether this variant has abundance fitness no lower than -0.006: D23P
Condition not met

Determine whether this variant has abundance fitness no lower than -0.006: L50H
Condition met

Determine whether this variant has abundance fitness no lower than -0.006: K78F
Condition met

New cases:
Determine whether this variant has abundance fitness no lower than -0.006: V24M
Condition not met

Determine whether this variant has abundance fitness no lower than -0.006: K81P
Condition not met

Determine whether this variant has abundance fitness no lower than -0.006: K78A
Condition met

Determine whether this variant has abundance fitness no lower than -0.006: D23E
Condition met
